- Tested on: RARg:RXRa (NR concentration 270 nM, RXRa partner concentration 90 nM)
- assay-comment: PBM binding z-score (relative to random genomic background probes); higher = stronger binding; sequences stand for … in GC…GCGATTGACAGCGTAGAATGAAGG
Use 4 as the dividing line for PBM binding z-score, with the line itself on the true side and lower values as false.

// known answers, use as guide
ATCTCTAGGTAAAAGTTCATTGAATCCCGAGGAT :: false
AGAACGAGGGCACGCTGTGTTGATAGCAGAGTAG :: false
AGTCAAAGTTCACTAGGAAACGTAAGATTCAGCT :: true
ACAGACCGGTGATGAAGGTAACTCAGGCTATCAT :: false
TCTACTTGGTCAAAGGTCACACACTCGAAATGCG :: true

Decide: is the reported value of PBM binding z-score for `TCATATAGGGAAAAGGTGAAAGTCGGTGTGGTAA` equal to or greater than 4?
false

Decide: is the reported value of PBM binding z-score for `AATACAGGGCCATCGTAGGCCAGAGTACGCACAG` equal to or greater than 4?
false

Decide: is the reported value of PBM binding z-score for `CCTAGTTGGTCAGTAGGTCACACACCGGATATGA` equal to or greater than 4?
false

Decide: is the reported value of PBM binding z-score for `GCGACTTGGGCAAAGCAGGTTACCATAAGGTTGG` equal to or greater than 4?
false

Decide: is the reported value of PBM binding z-score for `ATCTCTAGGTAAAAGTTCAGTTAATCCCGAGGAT` equal to or greater than 4?
false

* * *

- Test system: THRa homodimer (NR concentration 90 nM)
- assay-comment: PBM binding z-score (relative to random genomic background probes); higher = stronger binding; sequences stand for … in GC…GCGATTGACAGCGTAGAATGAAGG
Use 0.7 as the dividing line for PBM binding z-score, with the line itself on the Condition met side and lower values as Condition not met.

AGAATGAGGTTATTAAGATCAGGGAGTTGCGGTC :: Condition met
GGCACGAGGGCAAGTTGATAGCAGAGTTTGATGG :: Condition not met
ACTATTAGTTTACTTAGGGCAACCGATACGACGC :: Condition not met

Decide: is the reported value of PBM binding z-score for `CAGCCTAGGTCCGGGCCAGTATAGGAGGAACGTT` equal to or greater than 0.7?
Condition not met

Decide: is the reported value of PBM binding z-score for `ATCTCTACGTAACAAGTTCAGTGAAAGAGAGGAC` equal to or greater than 0.7?
Condition not met

Decide: is the reported value of PBM binding z-score for `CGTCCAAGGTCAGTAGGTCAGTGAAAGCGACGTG` equal to or greater than 0.7?
Condition met

* * *

// values below are reported PBM binding z-score
- Tested on: RARa:RXR (NR concentration 270 nM, RXRa partner concentration 90 nM)
- assay-comment: PBM binding z-score (relative to random genomic background probes); higher = stronger binding; sequences stand for … in GC…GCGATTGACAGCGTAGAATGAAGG

As a guide, the following entries are already answered.
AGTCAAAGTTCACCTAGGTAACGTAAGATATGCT :: 3.95
AATACAGGGTCACTAGGCCAGAGTTGGTACGAAT :: 4.44
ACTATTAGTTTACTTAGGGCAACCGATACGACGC :: 0.64
CTACCAAGGTGAACAAGGTCGGTGATTACTATTC :: 1.11
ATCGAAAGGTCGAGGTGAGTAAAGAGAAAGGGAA :: 2.88

Provide PBM binding z-score value for the following sequence: `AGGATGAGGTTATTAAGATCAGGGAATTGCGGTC`
1.53

Provide PBM binding z-score value for the following sequence: `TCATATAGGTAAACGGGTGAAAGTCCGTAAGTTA`
0.612

Provide PBM binding z-score value for the following sequence: `CCTGCTAGGTCAATGATCAGCTAAAGCAGCTCGC`
1.13

Provide PBM binding z-score value for the following sequence: `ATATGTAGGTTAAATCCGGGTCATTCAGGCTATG`
4.3

Provide PBM binding z-score value for the following sequence: `AGTCAAAGTTCAGGACGAGGTAACGCAAAGCACG`
2.78

Provide PBM binding z-score value for the following sequence: `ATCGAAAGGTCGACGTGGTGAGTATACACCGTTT`
3.07

Provide PBM binding z-score value for the following sequence: `CGTCCAAGGTCATAGGAGGTCAGTGATGACAGAT`
5.69

Provide PBM binding z-score value for the following sequence: `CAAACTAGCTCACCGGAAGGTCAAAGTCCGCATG`
3.64

Provide PBM binding z-score value for the following sequence: `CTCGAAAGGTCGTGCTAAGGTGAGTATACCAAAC`
5.09

Provide PBM binding z-score value for the following sequence: `ACAGACAGGTGTTGAAGGTAACTCAGGCTATCAT`
0.0742

Provide PBM binding z-score value for the following sequence: `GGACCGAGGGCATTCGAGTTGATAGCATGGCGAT`
0.835

Provide PBM binding z-score value for the following sequence: `CAAACTAGGTCAAAGGGCAAAGTCGAGCCAACCA`
6.57

Provide PBM binding z-score value for the following sequence: `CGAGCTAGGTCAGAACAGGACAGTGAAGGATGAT`
0.682

Provide PBM binding z-score value for the following sequence: `CGTGAAAGTTCAAGGTAACGTAACAGAAAGCAGC`
3.46

Provide PBM binding z-score value for the following sequence: `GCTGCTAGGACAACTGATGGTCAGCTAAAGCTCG`
-1.08

Provide PBM binding z-score value for the following sequence: `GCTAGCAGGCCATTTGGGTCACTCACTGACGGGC`
0.762

* * *

- Tested on: RARg homodimer (NR concentration 270 nM)
- assay-comment: PBM binding z-score (relative to random genomic background probes); higher = stronger binding; sequences stand for … in GC…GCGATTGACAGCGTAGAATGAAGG
// values below are reported PBM binding z-score

As a guide, the following entries are already answered.
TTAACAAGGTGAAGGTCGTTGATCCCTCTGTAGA :: 1.26
CCTACTGGGCCATTCAGAGGTCAGTGATCATATG :: 2.75
TCTGCTAGGTCAACGATGGTCTGCTAATCTGCTA :: 4.4
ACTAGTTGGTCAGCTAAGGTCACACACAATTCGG :: 4.53
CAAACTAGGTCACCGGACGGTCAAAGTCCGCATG :: 6.04

Provide PBM binding z-score value for the following sequence: `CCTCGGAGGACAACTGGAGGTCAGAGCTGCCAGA`
4.11

Provide PBM binding z-score value for the following sequence: `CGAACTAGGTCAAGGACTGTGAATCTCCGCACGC`
4.41

Provide PBM binding z-score value for the following sequence: `TCCTGTAGATCAATAGAGGTTAAGAAAGTGCGCT`
0.381

Provide PBM binding z-score value for the following sequence: `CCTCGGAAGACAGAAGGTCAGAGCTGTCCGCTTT`
2.32

Provide PBM binding z-score value for the following sequence: `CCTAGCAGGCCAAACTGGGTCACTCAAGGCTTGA`
1.51

Provide PBM binding z-score value for the following sequence: `GTACCAAGGTCAATAGGTCGTTGATGAGTAGGCG`
5.59

* * *

- Tested on: RARg homodimer (NR concentration 270 nM)
- assay-comment: PBM binding z-score (relative to random genomic background probes); higher = stronger binding; sequences stand for … in GC…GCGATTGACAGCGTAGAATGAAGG
// values below are reported PBM binding z-score
// no unit, no text: just the number

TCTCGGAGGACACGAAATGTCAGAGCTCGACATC :: 1.7
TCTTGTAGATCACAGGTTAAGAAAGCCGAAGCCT :: 0.135
GGAGCGAGGGCAAAGTTGATAGCATCTGTCGACG :: 1.34

Provide PBM binding z-score value for the following sequence: `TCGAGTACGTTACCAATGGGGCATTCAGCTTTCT`
-0.335

Provide PBM binding z-score value for the following sequence: `ACTATTAGTTGAGACGAGGGCCACCGATAGGTTG`
0.514

Provide PBM binding z-score value for the following sequence: `TAGCCTAGGTCATTGGGACAGTATAGTACGCATC`
4.51

Provide PBM binding z-score value for the following sequence: `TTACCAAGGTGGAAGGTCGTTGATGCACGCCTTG`
0.158

Provide PBM binding z-score value for the following sequence: `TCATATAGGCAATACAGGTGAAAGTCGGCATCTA`
0.134

Provide PBM binding z-score value for the following sequence: `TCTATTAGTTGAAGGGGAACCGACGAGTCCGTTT`
0.17

* * *

- Test system: LXRb homodimer (NR concentration 270 nM)
- assay-comment: PBM binding z-score (relative to random genomic background probes); higher = stronger binding; sequences stand for … in GC…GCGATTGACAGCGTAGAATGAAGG
observable: PBM binding z-score

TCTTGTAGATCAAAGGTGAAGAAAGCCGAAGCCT :: -0.372
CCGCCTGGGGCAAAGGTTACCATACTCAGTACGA :: -1.01
TCTTGTAGATCAATAGAGGTTAAGCAAGTGCGCT :: -0.1
AGAATGAGGTTATACGTAGATCATGGAAGAAAGT :: 0.0323
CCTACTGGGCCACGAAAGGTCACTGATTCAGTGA :: -0.0263

Shifting focus to the sequence that follows.
Provide PBM binding z-score value for the following sequence: `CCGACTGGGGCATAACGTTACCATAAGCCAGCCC`
-1.06
